Data origin, for the record: paper PMC4406453

target: recombinant T. circumcincta DPY-31 (Tc rDPY-31) (Teladorsagia circumcincta, UniProt A0A0C5PRQ1); construct: catalytic astacin domain only (684 bp codon-optimised synthetic gene), His-tagged, pET-28a(+) NdeI/XhoI, E. coli BL21 (DE3), Ni-NTA, 23 kDa; full-length precursor 614 residues; test: chromogenic protease assay, Suc-Ala-Ala-Ala-pNA, […] nm; settings: read-out: Effective concentration against T. circumcincta rDPY-31 ^d
Sequence (A0A0C5PRQ1 151-378 limits assumed): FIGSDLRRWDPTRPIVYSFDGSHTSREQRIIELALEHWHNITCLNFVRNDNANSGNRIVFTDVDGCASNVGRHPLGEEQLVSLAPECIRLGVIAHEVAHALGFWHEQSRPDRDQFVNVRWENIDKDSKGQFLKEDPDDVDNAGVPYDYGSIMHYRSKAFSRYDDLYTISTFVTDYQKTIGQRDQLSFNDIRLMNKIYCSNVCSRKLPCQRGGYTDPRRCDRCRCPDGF
READOUT TYPE: IC50 (µM)

structure=CCCCC[C@H](CC(=O)NO)C(=O)N[C@H](C(=O)N1CCC[C@H]1CO)C(C)C readout_type=IC50 observed=50
